test: The drug is tested on Parabacteroides merdae strain: ATCC43184 for biotransformation. The drug concentrations were measured before and after a 12-h incubation by liquid-chromatography-coupled mass spectrometry (LC–MS); conditions: 2 µM
measurement name: Bacterial Biotransformation

Use these answered entries as a reference point.
Cc1ccc(NC(=O)c2ccc(CN3CCN(C)CC3)cc2)cc1Nc1nccc(-c2cccnc2)n1 [IMATINIB] : Compound NOT metabolized
CC(C)NCC(O)c1ccc(NS(C)(=O)=O)cc1 (stereo not drawn) [SOTALOL] : Compound NOT metabolized
CN(C)CCC=C1c2ccccc2COc2ccccc21 [DOXEPIN] : Compound NOT metabolized
O=C([O-])C[C@H](O)C[C@H](O)/C=C/c1c(C2CC2)nc2ccccc2c1-c1ccc(F)cc1.O=C([O-])C[C@H](O)C[C@H](O)/C=C/c1c(C2CC2)nc2ccccc2c1-c1ccc(F)cc1.[Ca+2] [PITAVASTATIN CALCIUM] : Compound NOT metabolized
CN1CCN(C2=Nc3ccccc3Oc3ccc(Cl)cc32)CC1.O=C(O)CCC(=O)O [LOXAPINE SUCCINATE] : Compound NOT metabolized
CC(CN1c2ccccc2Sc2ccccc21)N(C)C (stereo not drawn) [PROMETHAZINE] : Compound NOT metabolized

# molecule Cc1ccccc1C(OCCN(C)C)c1ccccc1.O=C(O)CC(O)(CC(=O)O)C(=O)O (stereo not drawn) [ORPHENADRINE CITRATE] ; its Bacterial Biotransformation = Compound NOT metabolized

# molecule Cc1ccc(S(=O)(=O)NC(=O)NN2CC3CCCC3C2)cc1 (stereo not drawn) [GLICLAZIDE] ; its Bacterial Biotransformation = Compound NOT metabolized

# molecule CCN(C)C(=O)Oc1cccc([C@H](C)N(C)C)c1.O=C(O)C(O)C(O)C(=O)O [RIVASTIGMINE TARTRATE] ; its Bacterial Biotransformation = Compound NOT metabolized

# molecule CC(=O)OCC(=O)NCCCOc1cccc(CN2CCCCC2)c1 [ROXATIDINE ACETATE] ; its Bacterial Biotransformation = Compound metabolized

# molecule CN1[C@@H]2CC[C@H]1C[C@@H](OC(=O)c1c[nH]c3ccccc13)C2 [TROPISETRON] ; its Bacterial Biotransformation = Compound NOT metabolized

# molecule C[C@@H](c1ncncc1F)[C@](O)(Cn1cncn1)c1ccc(F)cc1F [VORICONAZOLE] ; its Bacterial Biotransformation = Compound NOT metabolized

# molecule COc1cc2nc(N3CCN(C(=O)C4COc5ccccc5O4)CC3)nc(N)c2cc1OC.CS(=O)(=O)O (stereo not drawn) [DOXAZOSIN MESYLATE] ; its Bacterial Biotransformation = Compound NOT metabolized

# molecule CCCCCNC(=N)N/N=C/c1c[nH]c2ccc(OC)cc12.O=C(O)/C=C\C(=O)O [TEGASEROD MALEATE] ; its Bacterial Biotransformation = Compound NOT metabolized

# molecule Cc1nc2n(c(=O)c1CCN1CCC(c3noc4cc(F)ccc34)CC1)CCCC2 [RISPERIDONE] ; its Bacterial Biotransformation = Compound NOT metabolized

# molecule C[N+]12CCC(CC1)C(OC(=O)C(O)(c1ccccc1)c1ccccc1)C2.[Br-] (stereo not drawn) [CLIDINIUM BROMIDE] ; its Bacterial Biotransformation = Compound NOT metabolized

# molecule OCCOCCN1CCN(C2=Nc3ccccc3Sc3ccccc32)CC1 [QUETIAPINE] ; its Bacterial Biotransformation = Compound NOT metabolized

# molecule COc1ccc(Cc2nccc3cc(OC)c(OC)cc23)cc1OC [PAPAVERINE] ; its Bacterial Biotransformation = Compound NOT metabolized

# molecule CCCC(=O)Nc1ccc(OCC(O)CNC(C)C)c(C(C)=O)c1 (stereo not drawn) [ACEBUTOLOL] ; its Bacterial Biotransformation = Compound NOT metabolized
